Data provenance is paper PMC12138345.

Target: CtPilB (Chloracidobacterium thermophilum, UniProt G2LDI3)
Sequence (G2LDI3 140-614): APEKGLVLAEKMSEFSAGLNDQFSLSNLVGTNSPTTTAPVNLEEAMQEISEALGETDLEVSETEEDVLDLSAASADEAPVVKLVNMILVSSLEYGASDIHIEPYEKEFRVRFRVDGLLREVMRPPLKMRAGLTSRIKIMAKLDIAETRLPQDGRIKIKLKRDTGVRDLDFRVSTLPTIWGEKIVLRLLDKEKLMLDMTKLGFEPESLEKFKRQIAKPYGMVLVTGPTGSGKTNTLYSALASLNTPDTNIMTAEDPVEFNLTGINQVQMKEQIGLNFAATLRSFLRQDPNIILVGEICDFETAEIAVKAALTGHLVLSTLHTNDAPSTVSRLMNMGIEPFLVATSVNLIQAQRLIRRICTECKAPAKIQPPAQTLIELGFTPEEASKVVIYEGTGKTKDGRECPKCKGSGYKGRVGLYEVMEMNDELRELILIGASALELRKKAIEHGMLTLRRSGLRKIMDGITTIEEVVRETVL
Experiment: CtPilB ATPase malachite green assay
Type: biochemical
Conditions: read-out: % Inhib. 30 μM
I'd be grateful if you could share measured inhibition at 30 µM for these entries.
Use % as the unit, but write only the number.

// inhibition at 30 µM lookup, key: N[C@H](CO)C(=O)N/N=C/c1cc(O)ccc1O (mixture of isomers) 80

Name the reported inhibition at 30 µM value associated with the compound NC(CO)C(=O)NNCc1ccc(O)c(O)c1O (stereo not drawn) [Benserazide, reference compound] 80

Which inhibition at 30 µM reading was recorded for the compound "N[C@H](CO)C(=O)NNCc1cccc(O)c1O" ? 78.2
